Reported switch fluorescence ratio is given for each of the following sequences.
Test system: ATP;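 also: ATP exposure 15 min at 22 °C before imaging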
experimental.details: switch fluorescence ratio, 500 uM ATP over buffer (Cy3 cluster intensity, sum of 5 cycles each) (fold (ratio)); higher = stronger signal-on switching upon ATP binding; sequences stand for … in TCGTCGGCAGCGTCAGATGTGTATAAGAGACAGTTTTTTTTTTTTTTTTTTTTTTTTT…TC
condition.context: aptamer strand: ATP DNA aptamer (quencher-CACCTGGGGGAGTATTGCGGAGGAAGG + anchor), 100 nM annealed; ATP concentration: 500 uM
Form field (numeric): enter value without unit.

Illustrative cases are given below, each with its answer.
construct.sequence: TCTAGAGCGG
switch fluorescence ratio: 1.02

construct.sequence: TAAAGGGAAA
switch fluorescence ratio: 1.26

construct.sequence: TCGGACGTCG
switch fluorescence ratio: 1.07

construct.sequence: GGGAGAATAG
switch fluorescence ratio: 0.985

construct.sequence: ATTTTTTTGT
switch fluorescence ratio: 1

construct.sequence: AGCTGGAACA
switch fluorescence ratio: 1

construct.sequence: ATACTCTATT
switch fluorescence ratio: 1.07

construct.sequence: AAACTGGAG
switch fluorescence ratio: 1.04

Lookup: Look at this sequence and give its reported switch fluorescence ratio. GGGGAATGGA
Found: 0.982

Lookup: Item: TTATACGATG
Found: 1.01

Lookup: Item: AGACTAGCCA
Found: 0.981

Lookup: Item: TATGATGGGG
Found: 0.963

Lookup: Item: CTTGGGGCAT
Found: 1.03

Lookup: Item: GAAAGGGTGG
Found: 0.975

Lookup: Item: TGATGCTAGG
Found: 1.01

Lookup: Item: GTGGCGTGGA
Found: 0.991

====

Tested on: ATP;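 also: ATP exposure 15 min at 22 °C before imaging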
experimental.details: switch fluorescence ratio, 500 uM ATP over buffer (Cy3 cluster intensity, sum of 5 cycles each) (fold (ratio)); higher = stronger signal-on switching upon ATP binding; sequences stand for … in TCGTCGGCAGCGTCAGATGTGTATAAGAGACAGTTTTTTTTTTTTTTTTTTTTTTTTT…TC
condition.context: aptamer strand: ATP DNA aptamer (quencher-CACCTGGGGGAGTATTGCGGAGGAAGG + anchor), 100 nM annealed; ATP concentration: 500 uM
endpoint.name: switch fluorescence ratio

Illustrative cases are given below, each with its answer.
construct.sequence: ACGATGGCTG
switch fluorescence ratio: 1.04
//
construct.sequence: ATGCGGTCTG
switch fluorescence ratio: 1.04
//
construct.sequence: GGCTTTACGG
switch fluorescence ratio: 1.01
//
construct.sequence: ATAAGTGATC
switch fluorescence ratio: 0.981
//
construct.sequence: CGGAGGCTTG
switch fluorescence ratio: 1.01

Lookup: Look at this sequence and give its reported switch fluorescence ratio. CGCCGATATA
Found: 1.12

Lookup: Item: ATGGGCGGCC
Found: 1.05

Lookup: Item: GCTGAGGCTT
Found: 0.959

Lookup: Item: TTATCGGATT
Found: 0.983

Lookup: Item: AAGTTTGGGG
Found: 0.983

Lookup: Item: AACGGGAGAC
Found: 2.52

====

Tested on: ATP;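 also: ATP exposure 15 min at 22 °C before imaging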
experimental.details: switch fluorescence ratio, 500 uM ATP over buffer (Cy3 cluster intensity, sum of 5 cycles each) (fold (ratio)); higher = stronger signal-on switching upon ATP binding; sequences stand for … in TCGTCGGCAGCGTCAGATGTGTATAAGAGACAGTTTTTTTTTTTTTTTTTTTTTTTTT…TC
condition.context: aptamer strand: ATP DNA aptamer (quencher-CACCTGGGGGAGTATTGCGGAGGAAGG + anchor), 100 nM annealed; ATP concentration: 500 uM
endpoint.name: switch fluorescence ratio
Form field (numeric): enter value without unit.

Lookup: Look at this sequence and give its reported switch fluorescence ratio. GGCATTATAG
Found: 0.999

Lookup: Item: GATGGGGGTA
Found: 0.973

Lookup: Item: CGATTATTTC
Found: 0.983

Lookup: Item: TTCCTGAGGG
Found: 1.11

Lookup: Item: AATTTTTCGT
Found: 1

Lookup: Item: CCATTTTTTT
Found: 0.997

====

Test system: ATP;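 also: ATP exposure 15 min at 22 °C before imaging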
experimental.details: switch fluorescence ratio, 500 uM ATP over buffer (Cy3 cluster intensity, sum of 5 cycles each) (fold (ratio)); higher = stronger signal-on switching upon ATP binding; sequences stand for … in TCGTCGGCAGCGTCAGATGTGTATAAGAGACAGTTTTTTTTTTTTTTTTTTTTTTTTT…TC
condition.context: aptamer strand: ATP DNA aptamer (quencher-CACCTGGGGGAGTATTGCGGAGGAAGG + anchor), 100 nM annealed; ATP concentration: 500 uM
Decision: switch fluorescence ratio >= 1 yields rule met, all other cases yield rule not met.

construct.sequence: CGATCCGGGC
category.label: rule met
//
construct.sequence: TTTAGAGTGT
category.label: rule met

Lookup: Check if switch fluorescence ratio >= 1 (inclusive). Item: TTTGTCATGG
Found: rule met

Lookup: Item: CGGGAGAGTA
Found: rule met

Lookup: Item: GAAGTCCGCG
Found: rule met

Lookup: Item: TGTTGGTAGG
Found: rule not met

Lookup: Item: AGTCGTTTGC
Found: rule not met

Lookup: Item: TCCCGTAAGT
Found: rule met

====

Tested on: ATP;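 also: ATP exposure 15 min at 22 °C before imaging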
experimental.details: switch fluorescence ratio, 500 uM ATP over buffer (Cy3 cluster intensity, sum of 5 cycles each) (fold (ratio)); higher = stronger signal-on switching upon ATP binding; sequences stand for … in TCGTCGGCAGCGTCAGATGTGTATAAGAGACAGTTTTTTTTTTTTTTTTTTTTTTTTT…TC
condition.context: aptamer strand: ATP DNA aptamer (quencher-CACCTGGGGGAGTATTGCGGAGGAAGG + anchor), 100 nM annealed; ATP concentration: 500 uM
Reported switch fluorescence ratio is given for each of the following sequences.

Lookup: Look at this sequence and give its reported switch fluorescence ratio. GGATGGGCTG
Found: 1

====

Tested on: ATP;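 also: ATP exposure 15 min at 22 °C before imaging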
experimental.details: switch fluorescence ratio, 500 uM ATP over buffer (Cy3 cluster intensity, sum of 5 cycles each) (fold (ratio)); higher = stronger signal-on switching upon ATP binding; sequences stand for … in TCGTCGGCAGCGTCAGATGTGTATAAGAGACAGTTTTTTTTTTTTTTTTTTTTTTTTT…TC
condition.context: aptamer strand: ATP DNA aptamer (quencher-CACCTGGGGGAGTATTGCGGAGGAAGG + anchor), 100 nM annealed; ATP concentration: 500 uM
endpoint.name: switch fluorescence ratio
Form field (numeric): enter value without unit.

construct.sequence: GCTTTTCAGC
tested.on: ATP
switch fluorescence ratio: 1.01
//
construct.sequence: TCGTAGGGTC
tested.on: ATP
switch fluorescence ratio: 0.982
//
construct.sequence: AGTCCTTTT
tested.on: ATP
switch fluorescence ratio: 0.988
//
construct.sequence: GCTCCATCGA
tested.on: ATP
switch fluorescence ratio: 1.11
//
construct.sequence: TACTCGAGGG
tested.on: ATP
switch fluorescence ratio: 1.08
//
construct.sequence: CGTCTGGTGG
tested.on: ATP
switch fluorescence ratio: 0.991

Lookup: Write down the reported switch fluorescence ratio of AAGCGGGTCG , test system: ATP.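 Also: ATP exposure 15 min at 22 °C before imaging.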
Found: 1.03

Lookup: Item: GACGACGGAG
Found: 0.969

Lookup: Item: GGTAAAGTTG
Found: 1.07

Lookup: Item: CCTGAGGGAC
Found: 0.99

Lookup: Item: GGGTGGATGG
Found: 0.985

Lookup: Item: TTGGAATTCA
Found: 1.02

Lookup: Item: TTCAGTTGAG
Found: 1

Lookup: Item: ATGTCCCAAG
Found: 0.99

Lookup: Item: GGGATTAGTT
Found: 1.03

====

Tested on: ATP;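 also: ATP exposure 15 min at 22 °C before imaging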
experimental.details: switch fluorescence ratio, 500 uM ATP over buffer (Cy3 cluster intensity, sum of 5 cycles each) (fold (ratio)); higher = stronger signal-on switching upon ATP binding; sequences stand for … in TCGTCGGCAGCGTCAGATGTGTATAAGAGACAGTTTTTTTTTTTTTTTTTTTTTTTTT…TC
condition.context: aptamer strand: ATP DNA aptamer (quencher-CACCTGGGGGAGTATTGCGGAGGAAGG + anchor), 100 nM annealed; ATP concentration: 500 uM
Reported switch fluorescence ratio is given for each of the following sequences.
Form field (numeric): enter value without unit.

Illustrative cases are given below, each with its answer.
construct.sequence: AGCAAATTCG
switch fluorescence ratio: 1.04
--
construct.sequence: TCCAAGGGGG
switch fluorescence ratio: 1.02
--
construct.sequence: TATTTATAAA
switch fluorescence ratio: 0.998
--
construct.sequence: AGTTACGCGC
switch fluorescence ratio: 1.04
--
construct.sequence: ATCGGAAGAA
switch fluorescence ratio: 1.01

Lookup: Look at this sequence and give its reported switch fluorescence ratio. GGGATGGTTA
Found: 0.971

Lookup: Item: GGGGGTGTTT
Found: 0.998

Lookup: Item: ATTAGGGGTT
Found: 1

Lookup: Item: TGAGGGCGAT
Found: 1.03

Lookup: Item: TTCCCCGTTG
Found: 1.12

Lookup: Item: TTCATTAATC
Found: 0.971

Lookup: Item: TATCGGACTG
Found: 1.01

Lookup: Item: GTTTAGTC
Found: 0.976

Lookup: Item: GCGAGGACAT
Found: 1.04

Lookup: Item: ATAGTCAAAC
Found: 1.03
